Data credit: patent US20200247855A1

# Lookup of reported Kd keyed by entry
experimental_system: CXCL2
protocol_summary: BLI
measured_metric: Kd

[
  {
    "binder": "P1166_IXORI (other) GPETKEDKKSDVYELFTVEYCGTNCTLLTNGRWTACTGKKGTCRCYHESGEKVGLCLSTEYTDFSEYPNPKSSEIDAAAPLPRETH",
    "recorded_measurement": "149 nM"
  },
  {
    "binder": "P1104_IXORI (other) ESKEASASQGPGKSFKVEFCETNCTENNGVWSGCTGDCICVSVGDSKEGRCMDLGDKVIDTPVAQG",
    "recorded_measurement": "82.3 nM"
  },
  {
    "binder": "P1126_AMBCA (other) KPQILQRTDKSTDSEWDPQTCPETCIPSKNITCSDGCVCVKLGEEEEGTCFNMTGVDWLGSPSDD",
    "recorded_measurement": "5.11 nM"
  }
]
